Recorded TGI, one value per entry.
# Tested on: OVCAR-8 ovarian
# TEST METHOD NOTES: NCI tumour cell line growth inhibition, 48 h
TEST READOUT: TGI

[[record]]
compound = "COc1cccc2c1C(=O)c1c(O)c3c(c(O)c1C2=O)C[C@@](O)(C(C)=O)CC3S(=O)(=O)O (stereo not given in full)"
target_under_test = "OVCAR-8 ovarian"
result = "> 100 µM"

[[record]]
compound = "COC1/C=C/C=C(/C)Cc2cc(O)c(Cl)c(c2)N(C)C(=O)CC(OC(=O)C(C)C)C2(C)OC2C(C)C2CC1(O)NC(=O)O2 (stereo not given)"
target_under_test = "OVCAR-8 ovarian"
result = "> 100 µM"

[[record]]
compound = "CC1CCC2C(C)C(=O)OC3OC4(C)CCC1C32OO4 (stereo not given)"
target_under_test = "OVCAR-8 ovarian"
result = "> 100 µM"

[[record]]
compound = "C/C=C1/CN2CCC34c5ccccc5N(C)C23C2CC1C4(C(=O)OC)C(OC(C)=O)O2 (stereo not given)"
target_under_test = "OVCAR-8 ovarian"
result = "> 100 µM"

[[record]]
compound = "N/C=N/S(=O)(=O)c1ccc(NC(=O)COC(=O)c2cccc3c(=O)c4ccccc4[nH]c23)cc1"
target_under_test = "OVCAR-8 ovarian"
result = "> 100 µM"

[[record]]
compound = "COc1ccc2c(c1)Oc1cc(O)ccc1[C@H]2c1ccccc1C(=O)NC(C)c1ccccc1 (stereo not given in full)"
target_under_test = "OVCAR-8 ovarian"
result = "36 µM"

[[record]]
compound = "COc1cc(-c2cc3ncccc3c3nc(OCCN(C)C)c4cccnc4c23)cc(OC)c1OC"
target_under_test = "OVCAR-8 ovarian"
result = "1.94 µM"

[[record]]
compound = "Cc1cc2c(c(C(=O)NCC(=O)N[C@@H](C)C(=O)OCc3ccccc3)c1)Oc1c(cc(C)cc1C(=O)NCC(=O)N[C@@H](C)C(=O)OCc1ccccc1)S2"
target_under_test = "OVCAR-8 ovarian"
result = "> 100 µM"

[[record]]
compound = "NC1N=Nc2ccccc21 (stereo not given)"
target_under_test = "OVCAR-8 ovarian"
result = "> 100 µM"

[[record]]
compound = "CC[C@@]1(O)C[C@H](OC2CC(N(C)C)C(O)C(C)O2)c2c(cc3c(c2O)C(=O)c2c(O)ccc(O)c2C3=O)[C@H]1C(=O)OC (stereo not given in full)"
target_under_test = "OVCAR-8 ovarian"
result = "0.643 µM"

[[record]]
compound = "CCC(C)(C)c1cc(O)c(C(C)(C)CC)cc1O"
target_under_test = "OVCAR-8 ovarian"
result = "23.5 µM"

[[record]]
compound = "Cn1c(-c2ccc(-c3cc(-c4cccs4)c(-c4cccs4)n3C)cc2)cc(-c2cccs2)c1-c1cccs1"
target_under_test = "OVCAR-8 ovarian"
result = "> 100 µM"

[[record]]
compound = "O=C(CN1CCCC1=O)CS(=O)(=O)c1ccccc1"
target_under_test = "OVCAR-8 ovarian"
result = "> 100 µM"

[[record]]
compound = "C[C@H](c1ccc(F)cc1CCCC(=O)O)N(c1cc(F)ccc1F)S(=O)(=O)c1ccc(Cl)cc1"
target_under_test = "OVCAR-8 ovarian"
result = "> 100 µM"

[[record]]
compound = "CSc1cc(Cl)c(C)cc1S(=O)(=O)NC(=O)NNc1ccc(F)cc1"
target_under_test = "OVCAR-8 ovarian"
result = "> 100 µM"

